Ok so here's the combined literature set: pKi for Cruzipain (Trypanosoma cruzi, UniProt P25779).
pKi (log units): -log10 of the concentration in mol/L.

INSERT INTO assay_data (compound, numericresult) VALUES
  ('COCCN1CC(=O)C(NC(=O)[C@H](Cc2ccccc2)NC(=O)OCc2ccccc2)CC1=O (stereo partly specified)', 6.01),
  ('CC(C)(C)CC(C)(C)SCC(=O)[C@H](Cc1ccccc1)NC(=O)[C@H](Cc1ccccc1)NC(=O)OCc1ccccc1', 7.98),
  ('N#CCNC(=O)[C@H](Cc1ccccc1)NC(=O)c1cc(Br)ccn1', 6.60);

pKi for Cruzipain (Trypanosoma cruzi, UniProt P25779) with input O=C(N[C@@H](Cc1ccccc1)C(=O)NC1CC(=O)N(Cc2ccccc2)CC1=O)OCc1ccccc1 (stereo in doubt) equals 6.69
